measured.on: T1, recombinant human ROR1 extracellular domain (human, UniProt Q01973 30-406)
T1 construct: biotinylated for the filter lifts; also called huROR1-ECD; human ROR1-ECD
assay.info: ELISA, soluble Fab on coated huROR1-ECD
quantity.name: pKd
Numbers only, as −log10 of the molar value.

| binder | pKd |
| --- | --- |
| Ab1 Fab variant H1 Y39F (Fab, V domains shown, Fab) VH: QVQLQESGPGLVKPSQTLSLTCTVSGYAFTAFNIHWVRQAPGQGLEWMGSFDPYDGGSSYNQKFKDRLTISKDTSKNQVVLTMTNMDPVDTATYYCARGWYYFDYWGHGTLVTVSS VL: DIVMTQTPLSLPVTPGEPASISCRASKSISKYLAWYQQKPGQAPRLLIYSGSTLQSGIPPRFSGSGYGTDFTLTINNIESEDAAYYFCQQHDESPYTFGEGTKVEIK | 8.24 |
| Ab1 Fab variant H2 S57A (Fab, V domains shown) VH: QVQLQESGPGLVKPSQTLSLTCTVSGYAFTAYNIHWVRQAPGQGLEWMGAFDPYDGGSSYNQKFKDRLTISKDTSKNQVVLTMTNMDPVDTATYYCARGWYYFDYWGHGTLVTVSS VL: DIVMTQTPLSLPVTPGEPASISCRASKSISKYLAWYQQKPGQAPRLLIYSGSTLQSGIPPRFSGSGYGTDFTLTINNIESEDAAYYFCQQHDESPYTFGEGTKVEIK | 8.44 |

For reference, reported pKd for Ab1 Fab variant H2 S68T (Fab, V domains shown, Fab) VH: QVQLQESGPGLVKPSQTLSLTCTVSGYAFTAYNIHWVRQAPGQGLEWMGSFDPYDGGTSYNQKFKDRLTISKDTSKNQVVLTMTNMDPVDTATYYCARGWYYFDYWGHGTLVTVSS VL: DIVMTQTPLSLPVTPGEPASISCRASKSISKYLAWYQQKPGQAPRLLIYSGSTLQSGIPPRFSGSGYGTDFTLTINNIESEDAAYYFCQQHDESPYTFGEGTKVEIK stands at 8.19
